- MEASUREMENT TARGET: human activated kallikrein enzyme (Homo sapiens)
- Sequence (P03952 391-638 limits assumed): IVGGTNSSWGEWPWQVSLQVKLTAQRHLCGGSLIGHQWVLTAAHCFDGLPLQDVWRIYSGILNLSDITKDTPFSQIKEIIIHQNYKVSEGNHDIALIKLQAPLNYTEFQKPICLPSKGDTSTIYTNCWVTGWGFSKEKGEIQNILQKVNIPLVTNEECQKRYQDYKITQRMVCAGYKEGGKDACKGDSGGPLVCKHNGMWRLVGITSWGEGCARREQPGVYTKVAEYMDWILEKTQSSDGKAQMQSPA
- Sequence (P03952 20-390 partner limits assumed): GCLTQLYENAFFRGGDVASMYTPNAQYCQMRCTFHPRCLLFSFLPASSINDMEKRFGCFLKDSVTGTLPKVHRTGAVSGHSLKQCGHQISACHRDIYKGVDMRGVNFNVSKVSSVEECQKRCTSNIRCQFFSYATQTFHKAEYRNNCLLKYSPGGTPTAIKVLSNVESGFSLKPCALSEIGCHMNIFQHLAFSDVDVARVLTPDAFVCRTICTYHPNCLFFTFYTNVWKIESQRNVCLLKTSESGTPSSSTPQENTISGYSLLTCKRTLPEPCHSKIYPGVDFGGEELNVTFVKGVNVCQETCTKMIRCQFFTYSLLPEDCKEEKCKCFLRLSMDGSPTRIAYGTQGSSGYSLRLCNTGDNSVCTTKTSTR
- EXPERIMENT NOTES: Plasma kallikrein inhibition, fluorogenic PFR-AMC substrate, 500 pM activated kallikrein format
- Format: biochemical
- TEST CONTEXT: 500 pM activated kallikrein, 300 uM PFR-AMC, 30 min preincubation, 10 min reaction; read-out: Primary Dose Response Assay: Average EC50
Exercise: state measured EC50 for each of the molecules provided.

Known EC50 results, listed for orientation:
{"MOLECULE": "Cc1ccnc([C@H]2C[C@@H]2C(=O)Nc2ncc(CO)c(NCc3cn4cc(C5CC5)cc(N5CC(=O)N(C)C5=O)c4n3)n2)n1 (racemic)", "EC50": "< 1 nM"}
{"MOLECULE": "Cc1ccnc([C@H]2C[C@@H]2C(=O)Nc2cc(N(C)Cc3cn4cc(C5CC5)cc(N5CC(=O)N(CCO)C5=O)c4n3)cc(C3CC3)n2)n1", "EC50": "< 1 nM"}

Now for another entry.
QUERY: Please look at this molecule and report its EC50: `O=C(Nc1cc(NCc2cn3cc(C4CC4)cc(N4CCNCC4)c3n2)ccn1)[C@H]1C[C@@H]1c1cccc(Cl)c1`
RESULT: < 1 nM
